Where do these numbers come from? They come from BigSolDB 2.1.

Condition summary: in ethanol, 283.15 K
Reported endpoint: solubility (mole fraction)
Output spec: single numeric token, no unit.

INPUT: solubility (mole fraction) for COC(=O)C1=C(C)NC(C)=C(C(=O)OCC(C)C)C1c1ccccc1[N+](=O)[O-] (stereo unspecified) ?
OUTPUT: 0.00348

----------
Condition summary: in water, 303.15 K
Reported endpoint: solubility (mole fraction)
Form rule: numeric answer, no unit written next to it.

INPUT: Would you kindly share the measured solubility (mole fraction) for COC(=O)C1=C(C)NC(C)=C(C(=O)OCC(C)C)C1c1ccccc1[N+](=O)[O-] (stereo unspecified) ?
OUTPUT: 1.5e-05

----------
Condition summary: in water, 313.15 K
Reported endpoint: solubility (mole fraction)

INPUT: Bench note: what solubility (mole fraction) did COC(=O)C1=C(C)NC(C)=C(C(=O)OCC(C)C)C1c1ccccc1[N+](=O)[O-] (stereo unspecified) show?
OUTPUT: 2.4e-05
